Value source: patent US20180085455A1

# koff listing for each entry below
# target or test system: T1, recombinant human ErbB3 protein (R&D systems) (human, UniProt P21860 20-643)
# T1 construct: Bought recombinant protein; also called HER3
# experimental details: BLI (Octet QK384), human ErbB3 immobilized on AR2G sensor, IgG at 12.5-50 nM
Write the value in s⁻¹ as a bare number.

Example results:
| binder | koff, s⁻¹ |
| --- | --- |
| 451M5 (antibody, V domains shown, IgG1 (Selexis 085 vector, CHO)) VH: EVQLLESGGGLVQPGGSLRLSCAASGFTFSDYDMSWVRQAPGKGLEWVSAIYYDSGSIYYADSAKGRFTISRDNSKNTLYLQMNSLRAEDTAVYYCAKDRLFESDSTFDYWGQGTLVTVSS VL: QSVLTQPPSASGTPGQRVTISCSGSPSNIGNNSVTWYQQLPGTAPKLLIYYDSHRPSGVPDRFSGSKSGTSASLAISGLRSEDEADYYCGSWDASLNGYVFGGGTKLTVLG | 3.29e-05 |
| 451M2 (antibody, V domains shown, IgG1 (Selexis 085 vector, CHO)) VH: EVQLLESGGGLVQPGGSLRLSCAASGFTFSDYDMSWVRQAPGKGLEWVSAIYYDSGSIYYADSAKGRFTISRDNSKNTLYLQMNSLRAEDTAVYYCAKDRLFASDSTFDYWGQGTLVTVSS VL: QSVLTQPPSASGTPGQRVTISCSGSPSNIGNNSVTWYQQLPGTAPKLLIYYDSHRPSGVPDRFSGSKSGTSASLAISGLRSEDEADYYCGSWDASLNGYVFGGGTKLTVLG | 1.56e-05 |

Then this binder:
[Q] Request the reported koff associated with 472S4 (antibody, V domains shown, IgG1 (Selexis 085 vector, CHO)) VH: EVQLLESGGGLVQPGGSLRLSCAASGFTFSWYDIAWVRQAPGKGLEWVSGISYDGGNTYYADSVKGRFTISRDNSKNTLYLQMNSLRAEDTAVYYCARDPSWCLQDLCYYADGMDVWGQGTLVTVSS VL: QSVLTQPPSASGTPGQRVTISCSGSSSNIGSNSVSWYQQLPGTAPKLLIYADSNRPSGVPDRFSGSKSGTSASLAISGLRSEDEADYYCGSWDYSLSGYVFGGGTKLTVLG
[A] 1.09e-05
